target: D(2) dopamine receptor (Homo sapiens); assay: Negative allosteric modulation of recombinant human D2L receptor expressed in Flp-In CHO cells assessed as inhibition of dopamine-induced reduction in forskolin stimulated cAMP accumulation by measuring equilibrium dissociation constant preincubated for 30 mins followed by forskolin stimulation and measured after 30 mins by BRET assay; type: functional, cell-based
MEASUREMENT NAME: pKb

c1nc(NC2CC2)c2c3c(sc2n1)CCCCCC3 :: 6.27

(1) CCN(CC)c1ncnc2sc3c(c12)CCCC3
(2) c1ccc(-c2csc3ncnc(NC4CCC4)c23)cc1
I need your help: which of the pair 1 , 2 has higher pKb? Bench note: the answer is the label of the chosen record.
1

---

target: D(2) dopamine receptor (Homo sapiens, UniProt P14416); assay: Negative allosteric modulation of recombinant human D2L receptor expressed in Flp-In CHO cells assessed as inhibition of dopamine-induced reduction in forskolin stimulated cAMP accumulation by measuring net cooperativity factor preincubated for 30 mins followed by forskolin stimulation and measured after 30 mins by BRET assay; type: functional, cell-based
Sequence (P14416 whole entry): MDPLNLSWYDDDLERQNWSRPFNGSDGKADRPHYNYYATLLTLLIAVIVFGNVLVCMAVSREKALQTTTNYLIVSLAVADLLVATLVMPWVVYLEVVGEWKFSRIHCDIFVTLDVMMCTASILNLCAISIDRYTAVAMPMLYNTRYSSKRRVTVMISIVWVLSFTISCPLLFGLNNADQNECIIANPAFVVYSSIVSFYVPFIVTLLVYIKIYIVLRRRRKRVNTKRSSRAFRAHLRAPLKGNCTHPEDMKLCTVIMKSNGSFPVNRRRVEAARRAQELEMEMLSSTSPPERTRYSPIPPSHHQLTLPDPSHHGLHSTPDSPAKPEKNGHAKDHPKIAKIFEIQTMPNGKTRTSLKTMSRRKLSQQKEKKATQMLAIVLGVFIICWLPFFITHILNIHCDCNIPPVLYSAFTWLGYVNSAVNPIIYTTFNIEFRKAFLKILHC
MEASUREMENT NAME: Activity index

(a) CCN(CC)c1ncnc2sc(C)c(C)c12
(b) c1nc(NC2CCC2)c2c3c(sc2n1)CCC3
(c) CC(C)(C)Nc1ncnc2sc3c(c12)CCCC3
(d) c1ccc(-c2csc3ncnc(NC4CCC4)c23)cc1
Arrange the items listed above so that Activity index rises from first to last. Submit the labels in the order that the ranking request calls for.
a, d, b, c

---

target: D(2) dopamine receptor (Homo sapiens); assay: Negative allosteric modulation of recombinant human D2L receptor expressed in Flp-In CHO cells assessed as inhibition of dopamine-induced reduction in forskolin stimulated cAMP accumulation by measuring intrinsic efficacy of the modulator preincubated for 30 mins followed by forskolin stimulation and measured after 30 mins by BRET assay; format: functional, cell-based
MEASUREMENT NAME: Intrinsic activity

The following compounds have reported results that may help.
c1ccc(-c2cc3c(NC4CC4)ncnc3s2)cc1 :: 0.6
c1nc(NCC2CC2)c2c3c(sc2n1)CCCC3 :: 0.86

(A) c1nc(NC2CCC2)c2c3c(sc2n1)CCCC3
(B) c1nc(NC2CC2)c2c3c(sc2n1)CCC3
Looking only at measured Intrinsic activity, which entry is lower, A or B ? // caller expects the label of the chosen entry
A
(A: 0.19, B: 0.75)

---

biological target: D(2) dopamine receptor (Homo sapiens); test: Negative allosteric modulation of recombinant human D2L receptor expressed in Flp-In CHO cells assessed as inhibition of dopamine-induced reduction in forskolin stimulated cAMP accumulation by measuring net cooperativity factor preincubated for 30 mins followed by forskolin stimulation and measured after 30 mins by BRET assay; type: functional, cell-based
MEASUREMENT NAME: log(activity)

CCN(CC)c1ncnc2sc(C)c(C)c12 :: -0.61
c1ccc(-c2csc3ncnc(NC4CC4)c23)cc1 :: -0.47
CC(C)(C)Nc1ncnc2sc3c(c12)CCCC3 :: -0.04
c1nc(N2CCOCC2)c2c3c(sc2n1)CCCC3 :: -0.22
CCN(CC)c1ncnc2scc(-c3ccccc3)c12 :: -0.57

(a) c1nc(NC2CCC2)c2c3c(sc2n1)CCC3
(b) c1nc(NC2CC2)c2ccsc2n1
(c) CCN(CC)c1ncnc2sc3c(c12)CCCC3
(d) c1ccc(-c2csc3ncnc(NC4CCC4)c23)cc1
Order the items by recorded log(activity); the first position goes to the largest value. Please respond by ranking the labels in the order requested.
a, d, b, c

(a) c1nc(NC2CCC2)c2ccsc2n1
(b) c1ccc(-c2cc3c(NC4CCC4)ncnc3s2)cc1
Of a and b , which carries the smaller reported log(activity) figure? Indicate your choice by writing its label.
b

---

target: D(2) dopamine receptor (Homo sapiens, UniProt P14416); assay: Negative allosteric modulation of recombinant human D2L receptor expressed in Flp-In CHO cells assessed as inhibition of dopamine-induced reduction in forskolin stimulated cAMP accumulation by measuring intrinsic efficacy of the modulator preincubated for 30 mins followed by forskolin stimulation and measured after 30 mins by BRET assay; format: functional, cell-based
MEASUREMENT NAME: log(activity)

c1nc(NC2CC2)c2c3c(sc2n1)CCCCCC3 :: 0

(1) CCN(CC)c1ncnc2sc(-c3ccccc3)cc12
(2) c1nc(NC2CC2)c2c3c(sc2n1)CCC3
(3) c1ccc(-c2csc3ncnc(NC4CCC4)c23)cc1
Parameters: sort_field (log(activity)), sort_dir (desc). Please express your ranking as an ordered list of the labels.
1, 2, 3
(1: 0, 2: -0.13, 3: -3)

(1) c1nc(NC2CCC2)c2c3c(sc2n1)CCC3
(2) c1ccc(-c2csc3ncnc(NC4CC4)c23)cc1
// which entry has the larger log(activity) value, 1 or 2 ? Identify your pick by its label.
1
(1: 0, 2: -3)

---

target: D(2) dopamine receptor (Homo sapiens); assay: Negative allosteric modulation of recombinant human D2L receptor expressed in Flp-In CHO cells assessed as inhibition of dopamine-induced reduction in forskolin stimulated cAMP accumulation by measuring modulation of dopamine efficacy preincubated for 30 mins followed by forskolin stimulation and measured after 30 mins by BRET assay; type: functional, cell-based
MEASUREMENT NAME: Efficacy

Known results for compounds:
c1nc(N2CCCC2)c2c3c(sc2n1)CCCC3 :: 0.17
c1nc(NC2CCC2)c2c3c(sc2n1)CCCCC3 :: 0.06
CCN(CC)c1ncnc2sc3c(c12)CCC3 :: 0.14
c1nc(NC2CC2)c2c(C3CCCCC3)csc2n1 :: 0.09
c1nc(NC2CCC2)c2c3c(sc2n1)CCCC3 :: 0.22

(a) c1nc(NC2CC2)c2c3c(sc2n1)CCCCC3
(b) c1nc(NC2CC2)c2c3c(sc2n1)CCCC3
So which one has the bigger Efficacy here, a or b ? Choose, then provide that item's label.
a

---

target: UniProt:P14416; assay: Negative allosteric modulation of recombinant human D2L receptor expressed in Flp-In CHO cells assessed as inhibition of dopamine-induced reduction in forskolin stimulated cAMP accumulation by measuring equilibrium dissociation constant preincubated for 30 mins followed by forskolin stimulation and measured after 30 mins by BRET assay; format: functional, cell-based
MEASUREMENT NAME: pKb

c1nc(N2CCOCC2)c2c3c(sc2n1)CCCC3 :: 3.9
CCN(CC)c1ncnc2scc(-c3ccccc3)c12 :: 4.22
c1ccc(-c2cc3c(NC4CC4)ncnc3s2)cc1 :: 5.92
c1nc(N2CCCCC2)c2c3c(sc2n1)CCCC3 :: 4.23
c1nc(NC2CC2)c2c(C3CCCCC3)csc2n1 :: 4.93
CCN(CC)c1ncnc2sccc12 :: 5.31
CC(C)(C)Nc1ncnc2sc3c(c12)CCCC3 :: 4.03
c1nc(NCC2CC2)c2c3c(sc2n1)CCCC3 :: 5.92
c1nc(NC2CCC2)c2c3c(sc2n1)CCCCCC3 :: 5.4
CCN(CC)c1ncnc2sc3c(c12)CCC3 :: 6.13
c1nc(NC2CCC2)c2ccsc2n1 :: 5.13
c1nc(NC2CCC2)c2c(C3CCCCC3)csc2n1 :: 5.53
c1nc(NC2CC2)c2c3c(sc2n1)CCCCC3 :: 5.53
c1nc(N2CCNCC2)c2c3c(sc2n1)CCCC3 :: 4.7
CCN(CC)c1ncnc2sc3c(c12)CCCCCC3 :: 4.84
c1nc(NC2CC2)c2c3c(sc2n1)CCCC3 :: 6.05
c1ccc(-c2csc3ncnc(NC4CC4)c23)cc1 :: 5.72
c1nc(NC2CC2)c2c3c(sc2n1)CCC3 :: 5.22
c1nc(N2CCCC2)c2c3c(sc2n1)CCCC3 :: 5.37
CCN(CC)c1ncnc2sc(C)c(C)c12 :: 4.71
CCN(CC)c1ncnc2sc(-c3ccccc3)cc12 :: 6.04
c1nc(NC2CCC2)c2c3c(sc2n1)CCC3 :: 3.99
Cc1sc2ncnc(NC3CCC3)c2c1C :: 5.54
c1nc(NC2CCC2)c2c3c(sc2n1)CCCC3 :: 6.25
c1nc(NC2CCC2)c2c3c(sc2n1)CCCCC3 :: 6.04
c1ccc(-c2cc3c(NC4CCC4)ncnc3s2)cc1 :: 5.35
c1nc(NC2CC2)c2ccsc2n1 :: 4.67

---

target: D(2) dopamine receptor (Homo sapiens, UniProt P14416); assay: Negative allosteric modulation of recombinant human D2L receptor expressed in Flp-In CHO cells assessed as inhibition of dopamine-induced reduction in forskolin stimulated cAMP accumulation by measuring net cooperativity factor preincubated for 30 mins followed by forskolin stimulation and measured after 30 mins by BRET assay; type: functional, cell-based
MEASUREMENT NAME: Activity index

c1ccc(-c2cc3c(NC4CCC4)ncnc3s2)cc1 :: 0.28
CCN(CC)c1ncnc2scc(-c3ccccc3)c12 :: 0.27

(A) c1ccc(-c2csc3ncnc(NC4CC4)c23)cc1
(B) c1nc(NC2CCC2)c2ccsc2n1
(C) c1nc(NC2CC2)c2ccsc2n1
(D) c1nc(N2CCOCC2)c2c3c(sc2n1)CCCC3
Order each entry by recorded Activity index, climbing from the minimum. Please respond with the labels ordered as the question requires.
C, A, B, D
(C: 0.22, A: 0.32, B: 0.48, D: 1.66)
